tested target: T1, human CTGF protein (R&D, Cat No. 9190-CC) (human, UniProt P29279 27-349)
T1 construct: Bought protein; also called CTGF recombinant protein; CTGF (R&D)
T1 sequence: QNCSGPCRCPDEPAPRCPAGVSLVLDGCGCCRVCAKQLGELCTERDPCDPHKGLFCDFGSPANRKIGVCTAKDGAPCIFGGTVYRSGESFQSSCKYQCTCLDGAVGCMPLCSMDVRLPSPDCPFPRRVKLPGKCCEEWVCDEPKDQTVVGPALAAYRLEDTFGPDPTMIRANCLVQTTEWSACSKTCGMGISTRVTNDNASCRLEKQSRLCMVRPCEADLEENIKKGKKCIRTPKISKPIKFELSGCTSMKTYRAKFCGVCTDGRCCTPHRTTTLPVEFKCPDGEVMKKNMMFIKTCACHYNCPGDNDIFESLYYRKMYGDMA
method: ELISA, plate coated with CTGF (R&D 9190-CC)
endpoint: pEC50
// pEC50: -log10(molar conc.)

Hu147-11wk (antibody, human IgG1, kappa, V domains shown) VH: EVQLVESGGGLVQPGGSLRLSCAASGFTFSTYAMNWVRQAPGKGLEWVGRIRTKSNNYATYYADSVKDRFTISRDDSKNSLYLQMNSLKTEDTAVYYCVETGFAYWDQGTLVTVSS VL: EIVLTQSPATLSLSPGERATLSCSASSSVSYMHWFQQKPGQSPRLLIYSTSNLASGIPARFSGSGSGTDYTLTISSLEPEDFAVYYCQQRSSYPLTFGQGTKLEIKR; 10.35
Hu147-13wk (antibody, human IgG1, kappa, V domains shown) VH: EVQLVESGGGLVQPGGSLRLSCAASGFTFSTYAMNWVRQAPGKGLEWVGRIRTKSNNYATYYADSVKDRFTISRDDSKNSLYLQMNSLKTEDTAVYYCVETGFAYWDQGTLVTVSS VL: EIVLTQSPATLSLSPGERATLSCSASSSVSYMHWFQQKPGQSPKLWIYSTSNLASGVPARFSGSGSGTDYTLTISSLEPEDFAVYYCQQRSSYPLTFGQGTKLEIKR; 10.37

Task: Return reported pEC50; argument: Hu164-57wl (antibody, human IgG1, lambda, V domains shown) VH: EVTLKESGPVLVKPTETLTLTCTVSGFSLSTFGVHWIRQPPGKALEWLAVIWRRGGTDYNAAFMSRLTISKDTSKSQVVLTMTNMDPVDTATYYCARDGGFDYWGQGTTVTVSS VL: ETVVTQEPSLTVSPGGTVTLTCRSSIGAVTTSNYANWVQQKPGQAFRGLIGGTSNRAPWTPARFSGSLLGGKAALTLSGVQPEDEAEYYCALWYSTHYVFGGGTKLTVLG
Result: 10.36

Attribution: patent US20220324953A1
